Sourced from ChEMBL document CHEMBL4340525

Test: Stability in swine liver homogenates assessed as parent compound remaining at 20 uM measured after 1 hr by LC-MS/MS analysis
Details: Sus scrofa, pig, tissue homogenate
PROPERTY LABEL: Stability (%)

Worked examples follow.
INSERT INTO assay_data (item_smiles, property_label, reported_result) VALUES
  ('CC(=O)NCCCC[C@H](NC(=O)[C@@H](N)Cc1c[nH]c2ccccc12)C(=O)N[C@@H](CCC(=O)C=[N+]=[N-])C(=O)OC(C)C', 'Stability', 0),
  ('CC(=O)NCCCC[C@H](NC(=O)[C@H](Cc1c[nH]c2ccccc12)NC(C)=O)C(=O)N[C@@H](CCC(=O)C=[N+]=[N-])C(=O)OC(C)C', 'Stability', 67);

1: CC(=O)NCCCC[C@H](NC(=O)[C@@H]1Cc2ccccc2CN1)C(=O)N[C@@H](CCC(=O)C=[N+]=[N-])C(=O)OC(C)C
2: CC(=O)NCCCC[C@H](NC(=O)OCC1c2ccccc2-c2ccccc21)C(=O)N[C@@H](CCC(=O)C=[N+]=[N-])C(=O)OC(C)C
3: CC(=O)NCCCC[C@H](NC(=O)[C@@H]1Cc2ccccc2CN1C(C)=O)C(=O)N[C@@H](CCC(=O)C=[N+]=[N-])C(=O)OC(C)C
4: CC(=O)NCCCC[C@H](NC(=O)Cc1c[nH]c2ccccc12)C(=O)N[C@@H](CCC(=O)C=[N+]=[N-])C(=O)OC(C)C
Enquiry: Please list these in order of increasing Stability. Thank you! Return the labels ranked in the requested order, please.
Return: 1, 2, 4, 3
(1: 0%, 2: 19%, 4: 40%, 3: 72%)

* * *

Assay: Stability in swine plasma assessed as parent compound remaining at 20 uM measured after 1 hr by LC-MS/MS analysis
Details: Sus scrofa, pig
PROPERTY LABEL: Stability (%)

The cases that follow already have their Stability on record.
INSERT INTO measurements (item_smiles, reported_result) VALUES
  ('CC(=O)NCCCC[C@H](NC(=O)[C@@H](N)Cc1c[nH]c2ccccc12)C(=O)N[C@@H](CCC(=O)C=[N+]=[N-])C(=O)OC(C)C', 19),
  ('CC(=O)NCCCC[C@H](NC(=O)[C@H](Cc1c[nH]c2ccccc12)NC(C)=O)C(=O)N[C@@H](CCC(=O)C=[N+]=[N-])C(=O)OC(C)C', 75),
  ('CC(=O)NCCCC[C@H](NC(=O)OC(C)(C)C)C(=O)N[C@@H](CCC(=O)C=[N+]=[N-])C(=O)OC(C)C', 85),
  ('CC(=O)NCCCC[C@H](NC(=O)C12CC3CC(CC(C3)C1)C2)C(=O)N[C@@H](CCC(=O)C=[N+]=[N-])C(=O)OC(C)C', 108),
  ('CC(=O)NCCCC[C@H](NC(=O)OC12CC3CC(CC(C3)C1)C2)C(=O)N[C@@H](CCC(=O)C=[N+]=[N-])C(=O)OC(C)C', 77);

P: CCCCCCCC(=O)N[C@@H](CCCCNC(C)=O)C(=O)N[C@@H](CCC(=O)C=[N+]=[N-])C(=O)OC(C)C
Q: CC(=O)NCCCC[C@H](NC(=O)[C@@H]1Cc2ccccc2CN1)C(=O)N[C@@H](CCC(=O)C=[N+]=[N-])C(=O)OC(C)C
Enquiry: // select label with min value of measured Stability from [ P , Q ] Respond with the label that goes with your answer.
Return: Q
(Q: 62%, P: 91%)
